The reported numbers originate from ChEMBL document CHEMBL6121062.

target: METTL3/METTL14 (Homo sapiens, UniProt Q86U44)
Sequence (Q86U44 whole entry): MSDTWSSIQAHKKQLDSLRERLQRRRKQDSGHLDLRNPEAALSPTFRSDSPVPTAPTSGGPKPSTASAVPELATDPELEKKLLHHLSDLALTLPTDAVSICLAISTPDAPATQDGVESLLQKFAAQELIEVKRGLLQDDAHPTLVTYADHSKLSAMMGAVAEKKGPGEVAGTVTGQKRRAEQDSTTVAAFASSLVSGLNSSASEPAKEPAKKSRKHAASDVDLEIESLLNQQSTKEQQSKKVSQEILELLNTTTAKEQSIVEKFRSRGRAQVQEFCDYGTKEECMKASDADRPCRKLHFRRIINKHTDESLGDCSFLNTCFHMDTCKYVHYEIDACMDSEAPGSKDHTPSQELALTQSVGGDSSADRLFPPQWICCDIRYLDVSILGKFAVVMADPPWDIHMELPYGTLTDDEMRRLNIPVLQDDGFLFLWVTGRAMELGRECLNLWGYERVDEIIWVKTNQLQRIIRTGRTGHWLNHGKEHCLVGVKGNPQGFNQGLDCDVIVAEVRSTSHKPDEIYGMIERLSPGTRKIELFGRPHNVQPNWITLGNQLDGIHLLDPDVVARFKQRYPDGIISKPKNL
Sequence (Q9HCE5 whole entry, further chain): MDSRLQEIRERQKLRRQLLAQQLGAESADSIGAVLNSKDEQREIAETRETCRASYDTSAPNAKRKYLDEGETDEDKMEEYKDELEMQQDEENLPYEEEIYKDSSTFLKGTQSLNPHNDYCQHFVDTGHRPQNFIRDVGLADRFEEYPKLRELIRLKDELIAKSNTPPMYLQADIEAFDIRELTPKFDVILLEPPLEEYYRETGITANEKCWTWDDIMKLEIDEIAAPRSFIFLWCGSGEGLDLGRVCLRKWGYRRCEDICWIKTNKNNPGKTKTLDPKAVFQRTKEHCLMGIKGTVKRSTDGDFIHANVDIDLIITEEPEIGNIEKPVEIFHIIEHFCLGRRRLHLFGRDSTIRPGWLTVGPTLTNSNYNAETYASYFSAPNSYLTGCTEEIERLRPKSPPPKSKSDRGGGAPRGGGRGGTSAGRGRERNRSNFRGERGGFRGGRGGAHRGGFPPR
procedure details: Displacement of [3H]-SAM from METTL3/METTL14 (unknown origin) using 5'biotinylated-UACACUCGAUCUGGACUAAAGGUGCUC-3' RNA as substrate preincubated for 10 mins followed by substrate/[3H]-SAM addition measured after 90 mins by SPA
Type: protein-complex assay
pIC50: −log10 of the molar value.
measurement name: pIC50

{"columns": ["compound", "sign", "experimental value"],
 "data": [
  ["CC(n1cc(-c2cncc(N3CCCC3)c2)nn1)n1ccc(N2CCC[C@@H](NCC3CC3)C2)cc1=O (stereo partly drawn)", "=", 8.52],
  ["COc1cncc(-c2cn(C(c3ccc(N4CCC[C@@H](NCC5CCC5)C4)nn3)C(F)(F)F)nn2)c1 (stereo partly drawn)", "=", 7.92],
  ["COc1cncc(-c2cc(C(C)n3ccc(N4CCC[C@@H](NCC5CCC5)C4)cc3=O)on2)c1 (stereo partly drawn)", "=", 8.15],
  ["COc1cc(-c2cn(Cc3ccc(N4CCC[C@@H](N)C4)nn3)nn2)c2cn[nH]c2c1", "=", 6.61],
  ["COc1cncc(-c2cc(C(C)n3ccc(N4CCC[C@@H](NCC5CCC5)C4)cc3=O)sn2)c1 (stereo partly drawn)", "=", 7.96],
  ["COc1ccc(-c2cn(C(C)n3ccc(N4CCC[C@@H](NCC5CCC5)C4)cc3=O)nn2)cn1 (stereo partly drawn)", "<", 4.52],
  ["C[C@@H](n1cc(-c2cncc(N3CCCC3)n2)nn1)n1ccc(N2CCC[C@@H](NCC3CC3)C2)cc1=O", "=", 9.00],
  ["COc1cncc(-c2cn([C@H](C)n3ccc(N4CCC[C@@H](NCC5CCC5)C4)cc3=O)nn2)c1", "=", 8.70]
]}

###

Recorded IC50, one value per entry.
target: METTL3/METTL14 (Homo sapiens)
procedure details: Displacement of [3H]-SAM from METTL3/METTL14 (unknown origin) using 5'biotinylated-UACACUCGAUCUGGACUAAAGGUGCUC-3' RNA as substrate preincubated for 10 mins followed by substrate/[3H]-SAM addition measured after 90 mins by SPA
Format: protein-complex assay

{"columns": ["compound", "uom", "IC50"],
 "data": [
  ["C[C@@H](n1cc(-c2cncc(N(C)C)c2)nn1)n1ccc(N2CCC[C@@H](NCC3CC3)C2)cc1=O", "nM", 2],
  ["COc1cncc(-c2nnn(C(C)n3ccc(N4CCC[C@@H](NCC5CCC5)C4)cc3=O)n2)c1 (stereo partly drawn)", "nM", 13],
  ["COc1cc(-c2cn(C(C)n3ccc(N4CCC[C@@H](NCC5CCC5)C4)cc3=O)nn2)c2cn[nH]c2c1 (stereo partly drawn)", "nM", 2],
  ["COc1cncc(-c2cn(Cc3ccc(C4CCCC(NCC5CCC5)C4)nn3)nn2)c1 (stereo not drawn)", "nM", 215],
  ["COc1cc(-c2cn(Cc3ccc(N4CCC[C@@H](NC5CC56CCC6)C4)nn3)nn2)c2cn[nH]c2c1 (stereo partly drawn)", "nM", 4],
  ["COc1cncc(-c2cn(Cc3ccc(N4CCCCC(NCC5CCC5)C4)nn3)nn2)c1 (stereo not drawn)", "nM", 50],
  ["COc1cc(-c2cn(Cc3ccc(N4CCC[C@H](NCC5CCC5)C4)nn3)nn2)c2cn[nH]c2c1", "nM", 24],
  ["COc1cncc(-c2nnc(C(C)n3ccc(N4CCC[C@@H](NCC5CCC5)C4)cc3=O)s2)c1 (stereo partly drawn)", "nM", 3],
  ["COc1cncc(-c2cn(C(C)n3ccc(N4CCC[C@@H](NCC5CCC5)C4)cc3=O)nn2)n1 (stereo partly drawn)", "nM", 3],
  ["COc1cc(-c2cn(Cc3ccc(N4CCC(NCC5CCC5)C4)nn3)nn2)c2cn[nH]c2c1 (stereo not drawn)", "nM", 235],
  ["CC(n1cc(-c2cncc(N3CCCC3)c2)nn1)n1ccc(N2CCC[C@@H](NCC3CCC3)C2)cc1=O (stereo partly drawn)", "nM", 2],
  ["COc1cc(-c2cn(Cc3ccc(N4CCC[C@@H](NCC5CC5)C4)nn3)nn2)c2cn[nH]c2c1", "nM", 2],
  ["CCC(c1ccc(N2CCC[C@@H](NCC3CCC3)C2)nn1)n1cc(-c2cncc(OC)c2)nn1 (stereo partly drawn)", "nM", 31],
  ["COc1cncc(-c2cn(Cn3ccc(N4CCC[C@@H](NCC5CCC5)C4)cc3=O)nn2)c1", "nM", 3],
  ["CC(n1cc(-c2cncc(N(C)C)n2)nn1)n1ccc(N2CCC[C@@H](NCC3CCC3)C2)cc1=O (stereo partly drawn)", "nM", 1],
  ["COc1cncc(-n2cc(C(C)n3ccc(N4CCC[C@@H](NCC5CCC5)C4)cc3=O)nn2)c1 (stereo partly drawn)", "nM", 7],
  ["COc1cncc(-c2cn(C(C)(C)c3ccc(N4CCC[C@@H](NCC5CCC5)C4)nn3)nn2)c1", "nM", 6],
  ["COc1cncc(-c2cn(Cc3ccc(N4CCC[C@@H](CNC5CCC5)C4)nn3)nn2)c1", "nM", 124]
]}

###

System: Kasumi 1
procedure details: Antiproliferative activity against human Kasumi 1 cells assessed as inhibition of cell viability incubated for 72 hrs by ATPlite assay
Assay type: functional, cell-based
assay conditions: Kasumi 1, 72 h

{"columns": ["compound", "uom", "sign", "IC50"],
 "data": [
  ["COc1cncc(-c2cn(Cn3ccc(N4CCC[C@@H](NCC5CCC5)C4)cc3=O)nn2)c1", "nM", "=", 1100],
  ["COc1cncc(-c2cn(C(C)n3ccc(N4CCC[C@@H](NCC5CCC5)C4)cc3=O)cn2)c1 (some centres undefined)", "nM", "=", 453],
  ["COc1cncc(-c2nnn(C(C)n3ccc(N4CCC[C@@H](NCC5CCC5)C4)cc3=O)n2)c1 (some centres undefined)", "nM", "=", 5500],
  ["COc1cncc(-c2cc(C(C)n3ccc(N4CCC[C@@H](NCC5CCC5)C4)cc3=O)on2)c1 (some centres undefined)", "nM", "=", 1840],
  ["COc1cc(-c2cn(Cc3ccc(N4CCC[C@@H](NCC5CCC5)C4)nn3)nn2)c2cn[nH]c2c1", "nM", "=", 629],
  ["COc1cc(-c2cn(Cc3ccc(N4CCC[C@@H](N(C)CC5CCC5)C4)nn3)nn2)c2cn[nH]c2c1", "nM", "=", 3130],
  ["COc1cc(-c2cn(Cc3ccc(N4CCC[C@@H](N)C4)nn3)nn2)c2cn[nH]c2c1", "nM", ">", 30000],
  ["COc1cncc(-c2cn(Cc3ccc(N4CCC[C@@H](CNC5CCC5)C4)nn3)nn2)c1", "nM", ">", 30000],
  ["COc1cc(-c2cn(Cc3ccc(N4CCC(NCC5CCC5)CC4)nn3)nn2)c2cn[nH]c2c1", "nM", ">", 30000]
]}

###

target: UniProtKB P11712
Sequence (P11712 whole entry): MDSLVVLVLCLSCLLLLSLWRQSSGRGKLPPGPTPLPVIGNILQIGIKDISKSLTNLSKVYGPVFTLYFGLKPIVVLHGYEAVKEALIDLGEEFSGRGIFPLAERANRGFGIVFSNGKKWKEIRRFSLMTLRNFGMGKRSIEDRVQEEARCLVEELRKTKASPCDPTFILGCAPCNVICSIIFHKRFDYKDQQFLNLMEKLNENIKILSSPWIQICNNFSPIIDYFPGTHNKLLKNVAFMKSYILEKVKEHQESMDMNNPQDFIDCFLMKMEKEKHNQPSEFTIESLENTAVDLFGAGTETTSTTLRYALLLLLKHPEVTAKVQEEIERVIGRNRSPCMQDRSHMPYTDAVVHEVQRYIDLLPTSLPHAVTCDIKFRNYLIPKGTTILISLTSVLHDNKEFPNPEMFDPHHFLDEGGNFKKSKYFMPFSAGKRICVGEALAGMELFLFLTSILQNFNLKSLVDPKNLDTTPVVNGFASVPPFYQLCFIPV

{"columns": ["line notation", "IC50"],
 "data": [
  ["C[C@@H](n1cc(-c2cncc(N(C)C)c2)nn1)n1ccc(N2CCC[C@@H](NCC3CC3)C2)cc1=O", "> 100 µM"]
]}

###

procedure details: Unbound clearance in Sprague-Dawley rat at 1 mg/kg/day, iv measured for 24 hrs by LC-MS/MS analysis
Type: ADME, organism-based
assay conditions: in vivo
Note to self: values exactly at 30 L/h/kg are rule met. So CL free at or above 30 L/h/kg is rule met, below is rule not met.

{"columns": ["compound", "class name"],
 "data": [
  ["CC(n1cc(-c2cncc(N(C)C)n2)nn1)n1ccc(N2CCC[C@@H](NCC3CCC3)C2)cc1=O (some centres not stated)", "rule not met"],
  ["COc1cncc(-c2cn([C@H](C)n3ccc(N4CCC[C@@H](NCC5CCC5)C4)cc3=O)nn2)c1", "rule met"],
  ["C[C@@H](n1cc(-c2cncc(N(C)C)c2)nn1)n1ccc(N2CCC[C@@H](NCC3CC3)C2)cc1=O", "rule not met"],
  ["C[C@@H](n1cc(-c2cncc(N3CCCC3)n2)nn1)n1ccc(N2CCC[C@@H](NCC3CC3)C2)cc1=O", "rule not met"],
  ["COc1cc(-c2cn(C(C)n3ccc(N4CCC[C@@H](NCC5CCC5)C4)cc3=O)nn2)c2cn[nH]c2c1 (some centres not stated)", "rule met"],
  ["CC(n1cc(-c2cncc(N(C)C)c2)nn1)n1ccc(N2CCC[C@@H](NCC3CCC3)C2)cc1=O (some centres not stated)", "rule met"],
  ["COc1cncc(-c2cn(Cc3ccc(N4CCC[C@@H](NCC5CCC5)C4)cn3)nn2)c1", "rule met"],
  ["COc1cncc(-c2nnc(C(C)n3ccc(N4CCC[C@@H](NCC5CCC5)C4)cc3=O)s2)c1 (some centres not stated)", "rule not met"],
  ["CC(n1cc(-c2cncc(N(C)C)n2)nn1)n1ccc(N2CCC[C@@H](NCC3CC3)C2)cc1=O (some centres not stated)", "rule not met"],
  ["CC(n1cc(-c2cncc(N3CCCC3)c2)nn1)n1ccc(N2CCC[C@@H](NCC3CCC3)C2)cc1=O (some centres not stated)", "rule met"],
  ["COc1cncc(-c2cn(C(C)(C)c3ccc(N4CCC[C@@H](NCC5CCC5)C4)nn3)nn2)c1", "rule not met"],
  ["COc1cncc(-n2cc(C(C)n3ccc(N4CCC[C@@H](NCC5CCC5)C4)cc3=O)cn2)c1 (some centres not stated)", "rule met"],
  ["COc1cncc(-c2cn(C(C)c3ccc(N4CCC[C@@H](NCC5CCC5)C4)nn3)nn2)c1 (some centres not stated)", "rule not met"],
  ["COc1cncc(-c2cn(C(C)n3ccc(N4CCC[C@@H](NCC5CCC5)C4)cc3=O)nn2)n1 (some centres not stated)", "rule not met"],
  ["CCOc1cncc(-c2cn(C(C)n3ccc(N4CCC[C@@H](NCC5CCC5)C4)cc3=O)nn2)c1 (some centres not stated)", "rule met"],
  ["CC(n1cc(-c2cncc(N3CCCC3)c2)nn1)n1ccc(N2CCC[C@@H](NCC3CC3)C2)cc1=O (some centres not stated)", "rule met"]
]}
